For each record, write down the corresponding association response of the second antibody.
TARGET ENTITY: T1, PDLoneECDHisCtag (human, UniProt Q9NZQ7 19-238)
T1 construct: Expressed in HEK-293F cells; theoretical molecular weight 29 kDa; also called recombinant human PD-L1 ECD; human PD-L1 (BLI); not shown: C-terminal His-tag; C-tag
T1 sequence (Q9NZQ7 19-238, form in doubt): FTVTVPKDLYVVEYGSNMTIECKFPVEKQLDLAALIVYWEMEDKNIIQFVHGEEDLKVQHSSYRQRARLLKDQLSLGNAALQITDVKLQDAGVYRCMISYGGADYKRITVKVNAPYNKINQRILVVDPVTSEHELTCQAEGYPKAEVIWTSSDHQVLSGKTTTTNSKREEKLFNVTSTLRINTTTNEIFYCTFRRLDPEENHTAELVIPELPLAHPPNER
METHOD DESCRIPTION: BLI cross-block, second antibody on PDLoneECDHisCtag held by immobilised MEDI; bold = blocking
Experimental: Antibody cross-block testing was performed using biolayer interferometry (BLI) on an Octet HTX instrument (ForteBio). Antibodies (20 μg/ml in 10 mM sodium acetate buffer pH 6.0 (ForteBio)) were immobilized on Amine-Reactive 2nd Generation (AR2G) biosensors (ForteBio) according to the instructions of the manufacturer. […] Data was analyzed using Data Analysis Software v9.0.0.12 (ForteBio). […]
Please state the number and follow it with the unit.

Query block: Which association response of the second antibody value is on record for IgG1-321-FEAR (antibody, V domains shown) VH: EVQLVESGGGLVQPGGSLRLSCAASGFTFSSYWMSWVRQAPGKGLEWVANIKQDGNEKYYVDSVKGRFTISRDNAKNSLYVQMNSLRAEDTAVYYCARDLYYGSGTYPPFDYWGQGTLVTVSS VL: DIQMTQSPSTLSASVGDRVTITCRASQSISSWLAWYLQKPGKAPKLLIYKASSLESGVPSRFSGSGSGTEFTLTISSLQPDDFATYYCQQYHSSSYTFGQGTKLEIK ?
Result block: 0 nm

Query block: Which association response of the second antibody value is on record for IgG1-338-FEAR (antibody, V domains shown) VH: EVQVVESGGGLVQPGGSLRLSCAASGFTFSRFWMSWVRQAPGKGLEWVANIKQDGGEKYYVDSVKGRFTISRDNAKNSLYLQMNSLRGEDTAVYYCARDDNWNGHFDYWGQGTLVTVSS VL: DIQMTQSPSTLSASVGDRVTITCRASQSISSWLAWYQQKPGKAPNLLIYKASSLESGVPSRFSGSGSGTEFTLTISSLQPDDFATYYCQQYYGSYITFGQGTRLEIKR ?
Result block: 0 nm
